- Test system: UACC-62 melanoma
- procedureText: NCI-60 one-dose screen, 48 h
- conditionParameters: 10 µM unless noted
This is part of a sample that, as a whole, favours compounds with a hit. Of some 83,000 tested, about 20% had one in any assay. Calls of active or inactive are those of the source. The calls were made as follows: active = growth percent below 10; inactive = the rest.
Classes used: active, inactive

molecule	class
Cc1cc(C)c2nc(Nc3nc(C)c(C)c(=O)[nH]3)nc(C)c2c1	active
O=c1cc(/C=N\Nc2nc(-c3ccc(Cl)cc3Cl)cs2)c2cc(Cl)ccc2o1	inactive
COc1ccc(-c2cc(-c3nnc(SCC(=O)Nc4ccc(/C(C)=N\O)cc4)o3)c3ccccc3n2)cc1	inactive
C=C1C(=O)O[C@H]2[C@H]1CC/C(COC(=O)n1ccnc1)=C\CC[C@@]1(C)O[C@@H]21	inactive
CC(=O)OCC1SC(OC(C)=O)C(NC(=O)/C=C/CCl)C(OC(C)=O)C1OC(C)=O (configuration not stated)	inactive
Oc1c(CCl)cc(Cl)cc1Cc1cc(Cl)cc(Cc2cc(Cl)cc(CCl)c2O)c1O	active
CCC1=C[C@H]2CN(CCc3c([nH]c4ccccc34)[C@@](C(=O)OC)(c3cc4c(cc3OC)N(C)[C@H]3[C@@](O)(C(=O)OC)[C@H](OC(C)=O)[C@]5(CC)[C@@H]6C[C@@H]6CN6CC[C@]43[C@@H]65)C2)C1	inactive
COc1cc(C2=NN(C=O)C(c3cccc(Nc4ccnc5cc(C(F)(F)F)ccc45)c3)C2)cc(OC)c1OC (configuration not stated)	inactive
N#Cc1c(-c2ccc(F)cc2)nc(N/N=C/c2c[nH]c3ccccc23)nc1N1CCOCC1	inactive
Nc1ccc(C2=NN(C(=O)c3cc(-c4ccc(Cl)cc4)nc4ccccc34)C(c3ccccc3)C2)cc1 (configuration not stated)	inactive
S=c1ssnc1-c1cc2ccccc2o1	inactive
Nc1ccc(C(=O)Nc2cccc(C(=O)Nc3ccc4c(O)c(N=Nc5ccc(N=Nc6ccc(S(=O)(=O)O)cc6)cc5)c(S(=O)(=O)O)cc4c3)c2)cc1	inactive
COc1cc(C2=N/C(=C\c3cc4ccccc4nc3Oc3ccccc3)C(=O)N2C(=N)N)cc(OC)c1OC	inactive
C=C(C)[C@@H]1CC[C@]2(C(=O)N3CCN(C)CC3)CC[C@]3(C)[C@H](CC[C@@H]4[C@@]5(C)C/C(=C/c6ccco6)C(=O)C(C)(C)[C@@H]5CC[C@]43C)[C@@H]12	inactive
Cc1nc2sc(C(=O)Nc3ccccc3Cl)c(N)c2cc1C(C)O (configuration not stated)	inactive
O=C1C(Cl)=C(Nc2ccc3c(c2NC2=C(Cl)C(=O)c4ccccc4C2=O)C(=O)c2ccccc2C3=O)C(=O)c2ccccc21	active
CCCCCCN1C(=O)CN=C1Nc1ccc2cc3ccc(NC4=NCC(=O)N4CCCCCC)cc3nc2c1	inactive
